Tested on: MCF-7 human breast cancer cells
Experiment: cells
Settings: MCF7, lowest cell concentration, 1×10^4 cells/well
measured.attribute: EC50 (µM)
Field: numeric (µM). Do not append units.

**Query** Tell me the measured EC50 of NC(=O)NO [hydroxyurea] , please.
**Result** 200
